# test target: ERα (Homo sapiens)
# Sequence (P03372 whole entry): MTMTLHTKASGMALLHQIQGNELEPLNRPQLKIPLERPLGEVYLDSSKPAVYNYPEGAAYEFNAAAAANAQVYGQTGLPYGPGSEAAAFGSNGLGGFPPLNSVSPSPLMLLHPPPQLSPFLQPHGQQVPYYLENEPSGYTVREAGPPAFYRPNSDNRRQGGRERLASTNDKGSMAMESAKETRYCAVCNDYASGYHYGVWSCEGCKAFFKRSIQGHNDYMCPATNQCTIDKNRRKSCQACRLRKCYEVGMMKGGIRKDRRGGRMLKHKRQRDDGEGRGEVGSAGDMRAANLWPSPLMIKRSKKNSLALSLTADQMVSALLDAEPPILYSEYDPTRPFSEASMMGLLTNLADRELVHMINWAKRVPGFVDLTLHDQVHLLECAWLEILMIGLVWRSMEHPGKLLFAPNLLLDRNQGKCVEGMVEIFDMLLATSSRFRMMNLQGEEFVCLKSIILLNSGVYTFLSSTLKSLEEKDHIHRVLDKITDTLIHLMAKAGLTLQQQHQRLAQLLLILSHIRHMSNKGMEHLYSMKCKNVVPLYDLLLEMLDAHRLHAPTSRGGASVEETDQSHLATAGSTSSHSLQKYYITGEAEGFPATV
# assay procedure: Degradation of ERα in MCF-7 cells (immunoblotting, 4 h)
# Assay type: cell-based
# experimental setup: 1nM compound
measured property: Degradation rate (%) of ERα in MCF-7 cells

Example cases with answers are listed next.
{"molecule": "O=C1CCC(N2C(=O)c3ccc4c(c3C2=O)OCC42CCN(CC3CCN(c4ccc([C@@H]5c6ccc(O)cc6CC[C@@H]5c5ccccc5)cc4)CC3)CC2)C(=O)N1 (some centres unmarked)", "test target": "ERα (Homo sapiens)", "value reported": -32}
{"molecule": "C[C@@H]1Cc2c(ccc3[nH]ncc23)C(c2ccc(N3CCC4(CCN(CC(=O)N5CCC6(CC5)COc5c6ccc6c5CN(C5CCC(=O)NC5=O)C6=O)C4)CC3)cn2)N1CC(F)(F)F (some centres unmarked)", "test target": "ERα (Homo sapiens)", "value reported": 40}
{"molecule": "O=C1CCC(N2Cc3c(ccc4c3OCC43CCN(C4CCN(C(=O)C5CCN(c6ccc([C@@H]7c8ccc(O)cc8CC[C@@H]7c7ccccc7)cc6)CC5)CC4F)CC3)C2=O)C(=O)N1 (some centres unmarked)", "test target": "ERα (Homo sapiens)", "value reported": 49}
{"molecule": "O=C1CCC(N2Cc3c(ccc4c3OCC43CCN(C(=O)[C@H]4CC[C@@H](N(CC5CC5)CC5CCN(c6ccc([C@@H]7c8ccc(O)cc8CC[C@@H]7c7ccccc7)cc6)CC5)CC4)CC3)C2=O)C(=O)N1 (some centres unmarked)", "test target": "ERα (Homo sapiens)", "value reported": 35}
{"molecule": "O=C1CCC(N2Cc3ccc4c(c3C2=O)OC2(CC4)CCN(C3CC4(CCN(c5ccc([C@@H]6c7ccc(O)cc7CC[C@@H]6c6ccccc6)cc5)CC4)C3)CC2)C(=O)N1 (some centres unmarked)", "test target": "ERα (Homo sapiens)", "value reported": -3}

(I) COC(=O)[C@H]1CC(N2CCC3(CC2)COc2c3ccc3c2CN(C2CCC(=O)NC2=O)C3=O)CCN1CC1CCN(c2ccc([C@@H]3c4ccc(O)cc4CC[C@@H]3c3ccccc3)cc2)CC1 (some centres unmarked)
(II) CCN(C1CCN(c2ccc([C@@H]3c4ccc(O)cc4CC[C@@H]3c3ccccc3)cc2)CC1)[C@H]1CC[C@@H](C(=O)N2CCC3(CC2)COc2c3ccc3c2CN(C2CCC(=O)NC2=O)C3=O)CC1 (some centres unmarked)
(III) O=C1CCC(N2Cc3c(ccc4c3OCC43CCN(C4CC5(CCC6(CCN(C7CCN(c8ccc([C@@H]9c%10ccc(O)cc%10CC[C@@H]9c9ccccc9)cc8)CC7)CC6)CC5)C4)CC3)C2=O)C(=O)N1 (some centres unmarked)
Input line: Please list the entries, largest Degradation rate (%) of ERα in MCF-7 cells first. Return the labels ranked in the requested order, please.
Output line: II, I, III
